Assay: Half-life for oxidative metabolic stability was determined using rat liver microsomes
Format: ADME, Microsome
metric-name: half-life (min)

1) CCN1c2ncc(CSc3cc(C)nc(C)c3)cc2C(=O)Nc2c(C)ccnc21	9
2) CCN1c2ncc(CSc3cc(C)nc(C)c3)cc2C(=O)Nc2c(C)cc(F)nc21	5
3) CCN1c2ncc(CSc3cc(C)nc(C)c3)cc2C(=O)Nc2c(C)cc(Cl)nc21	4

----------
Assay: Half-life consistent with the observed metabolic steady state in rats
Type: ADME, organism-based
Conditions: rat, in vivo
metric-name: half-life

1) CCN1c2ncc(CSc3cc(C)nc(C)c3)cc2C(=O)Nc2c(C)cc(Cl)nc21	90 min
